Data origin, for the record: patent US20250382298A1

procedure-text: Pharmacokinetic test in mice
Format: in vivo
protocol-conditions: BALB/c mice, PO @5mpk
parameter-measured: F (%)
Write it as a number; the unit % goes unstated.

Some solved cases for reference:
| molecule | unit-text | F |
| --- | --- | --- |
| O=C(Nc1cc2ccsc2c(N2CCC(F)(F)CC2)n1)c1ccc(NS(=O)(=O)CCO)cc1N1CCC2(CC1)CC2 | % | 79 |
| O=C(Nc1cn2ccnc2c(N2CCC(F)(F)CC2)n1)c1ccc(NS(=O)(=O)CCO)cc1N1CC2CCC(C2)C1 | % | 116 |

Input line: # input compound: O=C(Nc1cn2c(F)cnc2c(N2CCC(F)(F)CC2)n1)c1ccc(NS(=O)(=O)CCO)cc1N1CCC2(CC1)CC2 ; wanted: its F
Output line: 257

###

study-target: cytochrome oxidase P450 3A4 (Homo sapiens (Human))
Sequence (P08684 whole entry): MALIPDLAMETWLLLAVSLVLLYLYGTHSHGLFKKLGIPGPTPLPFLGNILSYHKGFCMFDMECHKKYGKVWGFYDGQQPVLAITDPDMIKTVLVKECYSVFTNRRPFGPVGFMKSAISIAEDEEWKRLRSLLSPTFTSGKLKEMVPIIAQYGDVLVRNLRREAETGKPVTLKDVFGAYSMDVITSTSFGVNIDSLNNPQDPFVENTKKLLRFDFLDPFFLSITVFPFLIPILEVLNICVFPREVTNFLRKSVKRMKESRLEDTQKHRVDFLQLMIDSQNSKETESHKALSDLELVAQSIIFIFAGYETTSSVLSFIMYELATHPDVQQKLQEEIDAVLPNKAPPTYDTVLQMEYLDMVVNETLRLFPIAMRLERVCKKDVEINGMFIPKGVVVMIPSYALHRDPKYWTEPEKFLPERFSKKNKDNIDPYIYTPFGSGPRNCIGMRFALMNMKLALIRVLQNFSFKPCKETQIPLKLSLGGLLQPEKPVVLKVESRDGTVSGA
pIC50: −log10 of the molar value.
parameter-measured: pIC50

Input line: Short answer please: pIC50, cytochrome oxidase P450 3A4 (Homo sapiens (Human)), entry O=C(Nc1cn2c(F)cnc2c(N2CCC(F)(F)CC2)n1)c1ccc(NS(=O)(=O)CCO)cc1N1CCC2(CC1)CC2 [Compound 34]
Output line: < 5.00

###

Tested on: HCT-116 cells
procedure-text: Detection of cell proliferation activity by CCK8 method (HCT-116)
Type: cell-based
protocol-conditions: Homo sapiens, CCK8, 96 h
pIC50: −log10 of the molar value.
parameter-measured: pIC50

Below are worked cases with known answers.
| compound | pIC50 |
| --- | --- |
| O=C(Nc1cn2ccnc2c(N2CCC(F)(F)CC2)n1)c1ccc(NS(=O)(=O)CCO)cc1N1CCC2(CC1)CC2 [Compound 8] | < 5.00 |
| CC1(S(=O)(=O)Nc2ccc(C(=O)Nc3cn4ccnc4c(N4CCC(F)(F)CC4)n3)c(N3CCC4(CC3)CC4)c2)CC1 [Compound 13] | < 5.00 |
| O=C(Nc1cn2ccnc2c(N2CCOCC2)n1)c1ccc(NS(=O)(=O)CCO)cc1N1CCC2(CC1)CC2 [Compound 11] | < 5.00 |
| Cn1ncc2cc(NC(=O)c3ccc(NS(C)(=O)=O)cc3N3CC4CCC(C4)C3)nc(N3CCC(F)(F)CC3)c21 [Compound 56] | < 5.00 |
| CC1(C)C2CN(c3cc(NS(=O)(=O)CCO)ccc3C(=O)Nc3cn4ccnc4c(N4CCC(F)(F)CC4)n3)CC21 (stereo not shown) [Compound 20] | < 5.00 |
| O=C(Nc1cc2ccsc2c(N2CCC(F)(F)CC2)n1)c1ccc(NS(=O)(=O)CCO)cc1N1CCC2(CC1)CC2 [Compound 15] | < 5.00 |

Please find the next compound below.
Input line: Look at this compound and give its reported pIC50. CS(=O)(=O)Nc1ccc(C(=O)Nc2cc3cc[nH]c3c(N3CCC(F)(F)CC3)n2)c(N2CC3CCC(C3)C2)c1 [Compound 63]
Output line: < 5.00

###

procedure-text: Pharmacokinetic test in rats
Assay type: in vivo
protocol-conditions: rat, plasma, 30 mg/kg; SD rats, PO @30mpk; read-out: t½ (converted)
parameter-measured: half-life (h)
Lab book: enter the figure in h, no units written.

Input line: # input molecule: O=C(Nc1cn2c(F)cnc2c(N2CCC(F)(F)CC2)n1)c1ccc(NS(=O)(=O)CCO)cc1N1CCC2(CC1)CC2 ; wanted: its half-life
Output line: 66.3

###

This section presents molecules with their documented half-life values.
procedure-text: Pharmacokinetic test in mice
Assay type: in vivo
protocol-conditions: mouse, plasma, 30 mg/kg; BALB/c mice, PO @30mpk; read-out: t½ (converted)
// note: answer is a bare numeric in h

Examples from the recorded data:
| molecule | test-result |
| --- | --- |
| O=C(Nc1cc2cc[nH]c2c(N2CCC(F)(F)CC2)n1)c1ccc(NS(=O)(=O)CCO)cc1N1CCC2(CC1)CC2 | 10 |
| CS(=O)(=O)Nc1ccc(C(=O)Nc2cc3cccnc3c(N3CCC(F)(F)CC3)n2)c(N2CC3CCC(C3)C2)c1 | 134 |
| CS(=O)(=O)Nc1ccc(C(=O)Nc2cn3ncnc3c(N3CCC(F)(F)CC3)n2)c(N2CC3CCC(C3)C2)c1 | 13 |
| Cn1ncc2cc(NC(=O)c3ccc(NS(C)(=O)=O)cc3N3CC4CCC(C4)C3)nc(N3CCC(F)(F)CC3)c21 | 80.8 |
| CS(=O)(=O)Nc1ccc(C(=O)Nc2cn3c(F)cnc3c(N3CCC(F)(F)CC3)n2)c(N2CC3CCC(C3)C2)c1 | 39 |

// switching to the query molecule
Input line: // lookup half-life for O=C(Nc1cn2c(F)cnc2c(N2CCC(F)(F)CC2)n1)c1ccc(NS(=O)(=O)CCO)cc1N1CCC2(CC1)CC2
Output line: 9.6

###

pIC50 for assorted compounds
study-target: hERG potassium channel (Homo sapiens (Human), UniProt Q12809)
Sequence (Q12809 whole entry): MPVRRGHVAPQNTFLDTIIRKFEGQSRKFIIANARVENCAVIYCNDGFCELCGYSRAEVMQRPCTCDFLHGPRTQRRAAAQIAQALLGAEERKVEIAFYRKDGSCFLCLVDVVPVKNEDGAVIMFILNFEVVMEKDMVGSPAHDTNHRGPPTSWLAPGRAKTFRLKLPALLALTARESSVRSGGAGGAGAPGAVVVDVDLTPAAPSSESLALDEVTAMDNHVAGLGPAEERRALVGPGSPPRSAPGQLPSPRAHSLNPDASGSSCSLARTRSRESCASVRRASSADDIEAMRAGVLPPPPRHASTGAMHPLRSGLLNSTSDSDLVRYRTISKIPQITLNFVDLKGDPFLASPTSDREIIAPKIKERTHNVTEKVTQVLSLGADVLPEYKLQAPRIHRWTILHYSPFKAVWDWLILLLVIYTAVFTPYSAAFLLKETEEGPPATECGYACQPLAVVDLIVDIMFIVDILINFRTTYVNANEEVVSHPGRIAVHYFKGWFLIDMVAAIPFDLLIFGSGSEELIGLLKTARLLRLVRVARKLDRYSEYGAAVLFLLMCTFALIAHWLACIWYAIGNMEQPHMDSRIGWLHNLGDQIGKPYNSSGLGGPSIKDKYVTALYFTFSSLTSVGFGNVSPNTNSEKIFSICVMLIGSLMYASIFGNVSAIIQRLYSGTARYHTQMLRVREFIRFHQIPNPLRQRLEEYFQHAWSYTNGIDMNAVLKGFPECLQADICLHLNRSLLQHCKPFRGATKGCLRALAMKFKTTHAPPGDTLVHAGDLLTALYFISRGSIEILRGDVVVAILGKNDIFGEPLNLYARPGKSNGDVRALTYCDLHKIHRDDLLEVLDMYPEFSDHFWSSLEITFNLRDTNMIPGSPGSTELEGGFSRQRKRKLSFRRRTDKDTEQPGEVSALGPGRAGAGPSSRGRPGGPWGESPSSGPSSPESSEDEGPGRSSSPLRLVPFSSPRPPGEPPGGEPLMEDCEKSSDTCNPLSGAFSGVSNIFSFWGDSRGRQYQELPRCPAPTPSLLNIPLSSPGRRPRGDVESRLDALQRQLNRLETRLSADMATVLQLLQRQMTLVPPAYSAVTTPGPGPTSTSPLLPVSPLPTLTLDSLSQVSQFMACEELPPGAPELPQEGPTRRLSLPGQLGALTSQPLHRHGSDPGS
procedure-text: hERG whole-cell patch clamp (Qpatch) in HEK293 cells
protocol-conditions: top concentration 30 μM
pIC50: −log10 of the molar value.

Solved entries:
| molecule | study-target | pIC50 |
| --- | --- | --- |
| CS(=O)(=O)Nc1ccc(C(=O)Nc2cn3ccnc3c(N3CCC(F)(F)CC3)n2)c(N2CC3CCC(C3)C2)c1 | hERG potassium channel (Homo sapiens (Human), UniProt Q12809) | < 4.52 |
| O=C(Nc1cn2ccnc2c(N2CCC(F)(F)CC2)n1)c1ccc(NS(=O)(=O)CCO)cc1N1CCC2(CC1)CC2 | hERG potassium channel (Homo sapiens (Human), UniProt Q12809) | < 4.52 |
| O=C(Nc1cc2ccccc2c(N2CCC(F)(F)CC2)n1)c1ccc(NS(=O)(=O)CCO)cc1N1CCC2(CC1)CC2 | hERG potassium channel (Homo sapiens (Human), UniProt Q12809) | < 4.52 |

Input line: API: value(readout=pIC50, system=hERG potassium channel (Homo sapiens (Human), UniProt Q12809)) for record O=C(Nc1cc2cccnc2c(N2CCC(F)(F)CC2)n1)c1ccc(NS(=O)(=O)CCO)cc1N1CCC2(CC1)CC2
Output line: < 4.52

###

procedure-text: Pharmacokinetic test in mice
Type: in vivo
protocol-conditions: mouse, plasma, 5 mg/kg; BALB/c mice, PO @5mpk
parameter-measured: log10 AUC (log10 of the value in µM·h)
Kindly note that the scale is log10 and the underlying AUC is in µM·h.

Below, each entry is followed by its recorded log10 AUC result.
| compound | log10 AUC |
| --- | --- |
| O=C(Nc1cn2c(F)cnc2c(N2CCC(F)(F)CC2)n1)c1ccc(NS(=O)(=O)CCO)cc1N1CCC2(CC1)CC2 [Compound 34] | 1.85 |
| O=C(Nc1cn2ccnc2c(N2CCC(F)(F)CC2)n1)c1ccc(NS(=O)(=O)CCO)cc1N1CC2CCC(C2)C1 [Compound 17] | 1.12 |
| CS(=O)(=O)Nc1ccc(C(=O)Nc2cn3cnnc3c(N3CCC(F)(F)CC3)n2)c(N2CC3CCC(C3)C2)c1 [Compound 65] | 1.30 |
| O=C(Nc1cc2cccnc2c(N2CCC(F)(F)CC2)n1)c1ccc(NS(=O)(=O)CCO)cc1N1CCC2(CC1)CC2 [Compound 21] | 1.78 |

Input line: Entry O=C(Nc1cc2ccsc2c(N2CCC(F)(F)CC2)n1)c1ccc(NS(=O)(=O)CCO)cc1N1CCC2(CC1)CC2 [Compound 15] has what log10 AUC?
Output line: 1.25

Input line: So what does the record say about log10 AUC for Cc1cc(NC(=O)c2ccc(NS(=O)(=O)CCO)cc2N2CC3CCC(C3)C2)nc(N2CCC(F)(F)CC2)n1 [Compound 3] ?
Output line: 1.87

Input line: # lookup: log10 AUC of O=C(Nc1cn2ccnc2c(N2CCC(F)(F)CC2)n1)c1ccc(NS(=O)(=O)CCO)cc1N1CCC2(CC1)CC2 [Compound 8]
Output line: 0.84

Input line: Consider the compound CS(=O)(=O)Nc1ccc(C(=O)Nc2cn3ccnc3c(N3CCC(F)(F)CC3)n2)c(N2CC3CCC(C3)C2)c1 [Compound 19] and give its measured log10 AUC.
Output line: 1.77

Input line: Bench note: what log10 AUC did CS(=O)(=O)Nc1ccc(C(=O)Nc2cc3nccnc3c(N3CCC(F)(F)CC3)n2)c(N2CC3CCC(C3)C2)c1 [Compound 72] show?
Output line: 1.82

Input line: Which log10 AUC is listed for O=C(Nc1cc2ccccc2c(N2CCC(F)(F)CC2)n1)c1ccc(NS(=O)(=O)CCO)cc1N1CCC2(CC1)CC2 [Compound 6] ?
Output line: 1.13

###

procedure-text: Pharmacokinetic test in mice
Assay type: in vivo
protocol-conditions: BALB/c mice, PO @5mpk
parameter-measured: F (%)
Write the number in % without appending the unit.

| molecule | test-result |
| --- | --- |
| O=C(Nc1cc2cccnc2c(N2CCC(F)(F)CC2)n1)c1ccc(NS(=O)(=O)CCO)cc1N1CCC2(CC1)CC2 | 107 |
| Cc1cc(NC(=O)c2ccc(NS(=O)(=O)CCO)cc2N2CC3CCC(C3)C2)nc(N2CCC(F)(F)CC2)n1 | 87 |
| CS(=O)(=O)Nc1ccc(C(=O)Nc2cn3ccnc3c(N3CCC(F)(F)CC3)n2)c(N2CC3CCC(C3)C2)c1 | 101 |
| CS(=O)(=O)Nc1ccc(C(=O)Nc2cn3cnnc3c(N3CCC(F)(F)CC3)n2)c(N2CC3CCC(C3)C2)c1 | 82 |
| CS(=O)(=O)Nc1ccc(C(=O)Nc2cc3nccnc3c(N3CCC(F)(F)CC3)n2)c(N2CC3CCC(C3)C2)c1 | 175 |

Input line: # lookup: F of O=C(Nc1cc2ccccc2c(N2CCC(F)(F)CC2)n1)c1ccc(NS(=O)(=O)CCO)cc1N1CCC2(CC1)CC2
Output line: 44

Input line: Could you tell me which F is on file for O=C(Nc1cn2ccnc2c(N2CCC(F)(F)CC2)n1)c1ccc(NS(=O)(=O)CCO)cc1N1CCC2(CC1)CC2 ?
Output line: 97
